Test: Half life in ICR mouse at 1 mg/kg, iv measured upto 24 hrs by HPLC-MS/MS analysis
Assay type: ADME, organism-based
Settings: in vivo
QUANTITY_MEASURED: half-life (min)
Supply the numeric figure in min, leaving out any unit text.

Given "CC(C)(Oc1cccc(N2CCC[C@@H](NC(=O)N(Cc3ccc(-c4cn[nH]c4)cc3)C3CC3)C2)c1)C(=O)NCCCN" , state its recorded half-life.
40.2

###

Assay: in vitro
Settings: mouse, liver microsomes
Description: Metabolic stability in mouse liver microsome assessed as half life preincubated with compound for 10 mins followed by NADPH addition and measured upto 60 mins by LC-MS/MS analysis
Measured half-life at 1 h, listed per entry for reference.
Supply the numeric figure in min, leaving out any unit text.

{"STRUCTURE_NOTATION": "CC(C)(Oc1cccc(N2CCC[C@@H](NC(=O)N(Cc3ccc(-c4cn[nH]c4)cc3)C3CC3)C2)c1)C(=O)NCCCN", "half-life at 1 h [min]": 31.5}

Given "CC(C)(Oc1cccc(N2CCC[C@@H](C(=O)N(Cc3ccc(-c4cn[nH]c4)cc3)C3CC3)C2)c1)C(=O)N1CCNCC1" , state its recorded half-life at 1 h.
2.37

###

Measured pIC50, listed per entry for reference.
Target: beta-catenin-B-cell lymphoma 9 protein complex (Homo sapiens)
Sequence (P35222 whole entry): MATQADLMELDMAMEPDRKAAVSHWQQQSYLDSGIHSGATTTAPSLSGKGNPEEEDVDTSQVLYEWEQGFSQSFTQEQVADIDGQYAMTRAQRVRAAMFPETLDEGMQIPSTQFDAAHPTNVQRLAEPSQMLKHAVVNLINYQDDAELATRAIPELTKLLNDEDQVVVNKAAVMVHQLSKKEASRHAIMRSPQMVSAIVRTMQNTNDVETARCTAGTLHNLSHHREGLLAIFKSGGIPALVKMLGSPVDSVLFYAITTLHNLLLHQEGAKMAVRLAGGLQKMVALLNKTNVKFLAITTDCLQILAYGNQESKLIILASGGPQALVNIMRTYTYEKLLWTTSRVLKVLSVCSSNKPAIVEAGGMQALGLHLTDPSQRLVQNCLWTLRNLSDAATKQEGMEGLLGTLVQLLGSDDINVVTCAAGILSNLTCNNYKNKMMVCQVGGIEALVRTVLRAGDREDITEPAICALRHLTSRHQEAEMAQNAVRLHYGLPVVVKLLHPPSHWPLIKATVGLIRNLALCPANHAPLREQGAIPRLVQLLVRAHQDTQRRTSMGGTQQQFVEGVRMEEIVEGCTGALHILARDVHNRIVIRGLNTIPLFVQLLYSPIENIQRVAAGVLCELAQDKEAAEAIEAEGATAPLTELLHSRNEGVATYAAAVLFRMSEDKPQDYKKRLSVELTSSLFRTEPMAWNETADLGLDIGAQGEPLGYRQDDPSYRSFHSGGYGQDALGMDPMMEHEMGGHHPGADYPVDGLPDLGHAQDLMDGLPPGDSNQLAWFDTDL
Sequence (O00512 whole entry): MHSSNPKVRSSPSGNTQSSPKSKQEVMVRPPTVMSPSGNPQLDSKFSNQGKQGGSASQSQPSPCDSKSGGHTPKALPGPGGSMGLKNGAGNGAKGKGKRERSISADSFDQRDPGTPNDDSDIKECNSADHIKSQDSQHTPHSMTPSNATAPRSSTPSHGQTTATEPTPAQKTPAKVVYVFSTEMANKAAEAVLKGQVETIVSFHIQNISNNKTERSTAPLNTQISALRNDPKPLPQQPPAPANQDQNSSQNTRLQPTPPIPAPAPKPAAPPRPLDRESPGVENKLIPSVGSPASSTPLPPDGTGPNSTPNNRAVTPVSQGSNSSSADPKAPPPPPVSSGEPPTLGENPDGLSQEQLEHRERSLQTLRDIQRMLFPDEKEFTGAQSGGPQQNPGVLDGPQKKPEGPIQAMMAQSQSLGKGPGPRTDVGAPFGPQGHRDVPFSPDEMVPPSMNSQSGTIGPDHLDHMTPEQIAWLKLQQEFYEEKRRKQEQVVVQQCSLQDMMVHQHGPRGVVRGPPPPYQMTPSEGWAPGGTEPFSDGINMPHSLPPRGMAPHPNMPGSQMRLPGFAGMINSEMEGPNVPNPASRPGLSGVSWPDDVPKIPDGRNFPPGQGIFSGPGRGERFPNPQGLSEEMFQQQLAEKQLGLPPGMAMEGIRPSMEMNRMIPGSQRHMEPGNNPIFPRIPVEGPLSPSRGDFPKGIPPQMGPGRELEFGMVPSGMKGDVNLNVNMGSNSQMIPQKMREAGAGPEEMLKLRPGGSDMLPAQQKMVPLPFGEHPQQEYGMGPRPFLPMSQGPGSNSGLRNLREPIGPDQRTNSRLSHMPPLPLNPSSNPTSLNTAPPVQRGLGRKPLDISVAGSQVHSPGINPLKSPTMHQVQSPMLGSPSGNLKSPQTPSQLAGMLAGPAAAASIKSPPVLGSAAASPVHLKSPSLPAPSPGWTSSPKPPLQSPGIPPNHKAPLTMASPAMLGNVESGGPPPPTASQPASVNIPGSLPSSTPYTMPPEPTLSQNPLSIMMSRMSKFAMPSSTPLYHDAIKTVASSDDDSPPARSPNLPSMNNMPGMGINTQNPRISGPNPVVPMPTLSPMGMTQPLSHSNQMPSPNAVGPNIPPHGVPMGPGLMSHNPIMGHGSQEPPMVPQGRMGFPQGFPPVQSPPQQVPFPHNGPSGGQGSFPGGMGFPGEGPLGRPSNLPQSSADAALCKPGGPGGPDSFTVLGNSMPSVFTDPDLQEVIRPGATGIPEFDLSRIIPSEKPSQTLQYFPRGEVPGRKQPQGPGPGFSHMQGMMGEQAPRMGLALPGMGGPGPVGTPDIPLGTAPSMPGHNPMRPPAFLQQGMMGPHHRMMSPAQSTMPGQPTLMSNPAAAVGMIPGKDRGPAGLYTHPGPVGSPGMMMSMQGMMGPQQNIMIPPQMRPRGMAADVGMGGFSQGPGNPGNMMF
Assay: Inhibition of full length his-tagged human beta-catenin (1 to 781 residues) expressed in Escherichia coli DE3/N-terminal FAM-tagged human BCL9 (350 to 375 residues) protein-protein interaction incubated for 2 hrs by fluorescence polarization assay
API: returns pIC50 as number; meaning -log10 of concentration in mol/L.

{"COMPOUND": "CC(C)(Oc1cccc(N2CCC[C@H](NC(=O)N(Cc3ccc(-c4cn[nH]c4)cc3)C3CC3)C2)c1)C(=O)NCCN", "TEST_TARGET": "beta-catenin-B-cell lymphoma 9 protein complex (Homo sapiens)", "QUANTITY_MEASURED": "pIC50", "OBSERVED_VALUE": 5.74}

Lookup: pIC50 / beta-catenin-B-cell lymphoma 9 protein complex (Homo sapiens) / CC(C)(Oc1cccc(N2CCC[C@H](NC(=O)N(Cc3ccc(-c4cn[nH]c4)cc3)C3CC3)C2)c1)C(=O)NCC(=O)N1CCCC1CCN (some centres undefined)
5.69

Lookup: pIC50 / beta-catenin-B-cell lymphoma 9 protein complex (Homo sapiens) / CC(C)(Oc1cccc(N2CCC[C@@H](NC(=O)N(Cc3ccc(-c4cn[nH]c4)cc3)C3CC3)C2)c1)C(=O)NCC(=O)N1CCCC1CCN (some centres undefined)
5.41

###

Experiment: Tmax in ICR mouse at 1 mg/kg, iv measured upto 24 hrs by HPLC-MS/MS analysis
Type: ADME, organism-based
Conditions: in vivo
QUANTITY_MEASURED: Tmax (min)
Supply the numeric figure in min, leaving out any unit text.

Given "CC(C)(Oc1cccc(N2CCC[C@@H](NC(=O)N(Cc3ccc(-c4cn[nH]c4)cc3)C3CC3)C2)c1)C(=O)NCCCN" , state its recorded Tmax.
4.8

###

Assay: Clearance in ICR mouse at 1 mg/kg, iv measured upto 24 hrs by HPLC-MS/MS analysis
Assay type: ADME, organism-based
Conditions: in vivo
QUANTITY_MEASURED: clearance (mL/min/kg)
Supply the numeric figure in mL/min/kg, leaving out any unit text.

Given "CC(C)(Oc1cccc(N2CCC[C@@H](NC(=O)N(Cc3ccc(-c4cn[nH]c4)cc3)C3CC3)C2)c1)C(=O)NCCCN" , state its recorded clearance.
40

###

Assay: Cmax in ICR mouse at 1 mg/kg, iv measured upto 24 hrs by HPLC-MS/MS analysis
Format: ADME, organism-based
Settings: in vivo
QUANTITY_MEASURED: Cmax

Given "CC(C)(Oc1cccc(N2CCC[C@@H](NC(=O)N(Cc3ccc(-c4cn[nH]c4)cc3)C3CC3)C2)c1)C(=O)NCCCN" , state its recorded Cmax.
910 ng/mL

###

Target: beta-catenin-B-cell lymphoma 9 protein complex (Homo sapiens)
Assay: Inhibition of beta-catenin (unknown origin)/BCL9 (unknown origin) protein-protein interaction
QUANTITY_MEASURED: pKi
API: returns pKi as number; meaning -log10 of concentration in mol/L.

Given "CCCC(=O)Oc1ccc([N+](=O)[O-])cc1" , state its recorded pKi.
5.68

###

Biological target: Catenin beta-1 (Homo sapiens)
QUANTITY_MEASURED: pKd
API: returns pKd as number; meaning -log10 of concentration in mol/L.

{"COMPOUND": "CC(C)(Oc1cccc(N2CCC[C@H](NC(=O)N(Cc3ccc(-c4cn[nH]c4)cc3)C3CC3)C2)c1)C(=O)NCCN", "TEST_TARGET": "Catenin beta-1 (Homo sapiens)", "pKd": 6.60}

Kindly review the next compound as well.
Given CC(C)(Oc1cccc(N2CCC[C@H](NC(=O)N(Cc3ccc(-c4cn[nH]c4)cc3)C3CC3)C2)c1)C(=O)NCC(=O)N1CCCC1CCN (some centres not stated) , state its recorded pKd.
6.19
